Value source: PubChem BioAssay AID2732

Experiment: blockers of ER-stress CHOP reporter expression – cell-based, unfolded protein response, luciferase reporter, primary screen (AID 2732);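 note: 0% = tunicamycin plus vehicle and 100% = wells without tunicamycin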
Conditions: CHO-K1 CHOP-promoter luciferase, tunicamycin-induced, 15-18 h; at 10 µM; stronger effect = higher value
Screen size: about 220,000 compounds; about 8,200 (3.7%) were called active. Many of the other results were omitted from the sample, so actives are more common in it than they were.
For each record, write down the corresponding inhibition.
Answers are plain numbers, in %.

Here are 3 compounds together with their reported answers.
CCOC(=O)c1oc2c(CN3CCN(C)CC3)c(O)ccc2c(=O)c1-c1ccc(Br)cc1; -10.9
COc1ccc(CN(Cc2ccc(OC)cc2)C(=O)c2cccs2)cc1; -9.17
Cc1cccc(NC(=O)c2sc3nc4c(c(-c5ccco5)c3c2N)CCC4)c1; 34.4

// each compound listed below needs its inhibition
1. COc1cc(C=O)ccc1Oc1nnnn1-c1ccccc1
2. Brc1ccc(-c2noc(-c3ccccc3)n2)o1
3. COc1cc(/C=N\NC(=O)CNC(=O)c2cccc([N+](=O)[O-])c2)ccc1O

A:
1. 4.01
2. 26.1
3. 8.27

---

Test: blockers of ER-stress CHOP reporter expression – cell-based, unfolded protein response, luciferase reporter, primary screen (AID 2732);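 note: 0% = tunicamycin plus vehicle and 100% = wells without tunicamycin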
Details: CHO-K1 CHOP-promoter luciferase, tunicamycin-induced, 15-18 h; at 10 µM; stronger effect = higher value
About 8,200 (3.7%) of roughly 220,000 compounds were called active. Shown is part of a subset that was picked to be rich in actives.
readout-kind: inhibition

Use the examples below as a reference point.
CCOc1ccc(S(=O)(=O)n2ccnc2)c2ccccc12; 4.14% (inactive)
CCOc1ccc(S(=O)(=O)N2CCCCCC2)c2ccccc12; 71.1% (active)

Each compound below has a reported value. Please supply its inhibition.
1. Cc1ccc(N2CCN(S(=O)(=O)c3ccc(F)cc3)CC2)c(C)c1
2. CCCSc1ncccc1C(=O)O
3. C=CCNC(=S)N1CCc2[nH]c3ccccc3c2C1
4. NC(=O)c1c(NC(=O)CSc2nnc(-c3ccco3)n2N)sc2c1CCCC2
5. O=c1c2ccccc2c(-c2ccccc2)nn1Cc1ccccc1

A:
1. 47.5% (inactive)
2. -2.65% (inactive)
3. 0.96% (inactive)
4. 22.2% (inactive)
5. 43.8% (inactive)

The following compounds each have a reported value; give each one's inhibition.
1. COc1ccc(S(=O)(=O)N2CCCC2)c(C)c1C
2. COc1ccc(-n2c(SCC(=O)Nc3sc4c(c3C#N)CCCC4)nnc2-c2ccc(O)cc2)cc1
3. O=C(Nc1ccccc1N1CCCCC1)c1cccc(F)c1
4. O=C(Nc1ccccc1N1CCN(c2ccccc2)CC1)c1cccc(F)c1

A:
["31.7% (inactive)", "106% (active)", "76% (active)", "44.2% (inactive)"]

---

Experiment: blockers of ER-stress CHOP reporter expression – cell-based, unfolded protein response, luciferase reporter, primary screen (AID 2732);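 note: 0% = tunicamycin plus vehicle and 100% = wells without tunicamycin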
Conditions: CHO-K1 CHOP-promoter luciferase, tunicamycin-induced, 15-18 h; at 10 µM; stronger effect = higher value
Among all 220,000 compounds or so, about 8,200 (3.7%) were called active. Shown is part of a subset that was picked to be rich in actives.
readout-kind: inhibition (%)
Answers are plain numbers, in %.

# annotated cases, reported inhibition shown
O=C(O)C1CC=CCC1C(=O)Nc1ccccc1C(=O)N1CCN(c2ccccc2)CC1 (centres undefined); 12.7
Cc1ccc(-n2c(SCC(=O)Nc3ccc4c(c3)OCO4)nnc2-c2ccccn2)cc1; 23
CCOC(=O)COc1nc(C)cc(C(F)(F)F)c1C#N; 16.9

Switching to the query record.
Q: Would you kindly share the measured inhibition for O=C(Nc1ccc(Cl)cc1)Nc1ccc(Oc2cccnc2)nc1 ?
A: 15.6

---

Assay: blockers of ER-stress CHOP reporter expression – cell-based, unfolded protein response, luciferase reporter, primary screen (AID 2732);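 note: 0% = tunicamycin plus vehicle and 100% = wells without tunicamycin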
Conditions: CHO-K1 CHOP-promoter luciferase, tunicamycin-induced, 15-18 h; at 10 µM; stronger effect = higher value
Screen size: about 220,000 compounds; about 8,200 (3.7%) were called active. This is one part of a sample in which actives are shown more often than they occur.
readout-kind: inhibition (%)
One number for each entry, in %.

CC1Cc2ccccc2N1S(=O)(=O)c1ccc(Cl)nc1 (stereo not drawn); 9.84
Cc1cc(=O)[nH]c(N/N=C/c2ccc3c(c2)OCCO3)n1; -1.69

Quick one: give me inhibition for each item below, same order please.
1. COC(=O)Cc1ccc(Oc2ncc(C(F)(F)F)cc2Cl)cc1
2. Cc1ccc(-c2noc(CSc3nnnn3-c3ccccc3)n2)cc1
3. O=C1C=C(c2ccc(Cl)cc2)C(=O)N1Nc1ccccc1
4. O=C(CN1CCN(Cc2ccccc2)CC1)NC(c1ccccc1)c1ccccc1
5. O=C(NCc1ccc(F)cc1)C1CCC(CNc2c(N3CCOCC3)c(=O)c2=O)CC1 (stereo not drawn)

A:
1. 29.9
2. 70.7
3. 108
4. -8.53
5. -4.35

List reported inhibition for each of these molecules:
1. NC(=O)C1=CN(C2OC(COP(=O)(O)OP(=O)(O)OC[C@H]3O[C@@H](n4cnc5c(N)ncnc54)C(OP(=O)(O)O)[C@H]3O)C(O)C2O)C=CC1 (stereo partly drawn)
2. Cc1ccc(CC(=O)Nc2ccc(OC(F)F)c(Cl)c2)cc1C
3. COc1ccc(Cl)cc1S(=O)(=O)N1CCC(O)(c2ccc(Cl)cc2)CC1
4. CC(=O)N1CCN(CC(=O)Nc2ccc(SC(F)F)cc2)CC1
5. O=c1c2ccccc2nc(CSc2nnnn2-c2ccccc2)n1-c1ccccc1
6. CN(C)CCCn1c(SCCN2C(=O)c3ccccc3C2=O)nc2ccccc2c1=O
7. O=C(Nc1nccs1)C1CCN(S(=O)(=O)c2ccc(Cl)c(C(F)(F)F)c2)CC1

A:
1: -6.4; 2: 62; 3: 19.7; 4: 16.9; 5: 32.4; 6: 4.6; 7: 70.1

Batch request: inhibition per item, same order as input.
1. COc1ccc2oc(=O)c(C(=O)N3CCN(c4ccccc4F)CC3)cc2c1
2. COc1ccccc1Oc1ccc(S(=O)(=O)Nc2cccnc2)cc1

A:
25.2
44.6

Please state inhibition for every molecule in the list that follows.
1. CCOC(=O)CN(C(=O)COc1nc(C)cc(C)c1C#N)c1ccc(Cl)cc1
2. COc1ccc(C(=O)NCC(=O)N/N=C/c2ccc([N+](=O)[O-])o2)cc1OC
3. CC(C)(C)CN1C(=O)C(=O)NC[C@H]1Cc1cccc2ccccc12
4. O=C1CC2(CC(c3ccc(Cl)cc3)=NO2)C(=O)N1c1ccccc1 (stereo not drawn)
5. CCOC(=O)c1cc(C)nc(S(C)(=O)=O)c1C#N
6. O=C(Nc1ccc(F)c(Cl)c1)C1CCN(S(=O)(=O)c2cccnc2)CC1

A:
[23.1, -82.2, 16.9, 18.6, -90.6, 24.3]

Please state, for each entry, its recorded inhibition.
1. CC(C)(C)c1nc2ccccc2c(=O)n1N1C(=O)c2ccccc2C1=O
2. COc1ccc(CCNS(=O)(=O)c2cccc3cccnc23)cc1OC

A:
71.3
0.78

Okay, here is my list. What is inhibition for each of these?
1. O=C(O)CC1=C(Nc2ccccc2)C(=O)N(c2ccccc2)C1c1ccc(Cl)cc1 (stereo not drawn)
2. Cc1ccc(-c2nc3ccccc3[nH]c2=O)cc1

A:
8.1
-30.2

Batch: inhibition for all items listed.
1. CC1(C)CCCC2=C1CC1C(=O)N(c3ccccc3)C(=O)C1C2 (stereo not drawn)
2. CCOC(=O)c1cn[nH]c1NC(=S)Nc1ccccc1
3. CN(CC(O)COc1ccc(S(=O)(=O)N2CCOCC2)cc1Cl)C1CCCCC1 (stereo not drawn)

A:
1. 12
2. -6.82
3. 9.37

For every listed record, write down its inhibition.
1. Cc1ccc(-c2noc(CSc3nnc(-c4cccs4)n3C)n2)cc1
2. CCC1(CC)Cc2ccccc2-c2nc3ccccc3c(=O)n21
3. Cn1c(=O)c2c(nc(OCc3cccnc3)n2Cc2ccccc2)n(C)c1=O
4. CC1CC2=C(CC1/C=N/NC(N)=S)C(C)(C)CCC2 (stereo not drawn)

A:
[-8.68, 16.7, 7.91, 89.8]

---

Answer each item with its documented inhibition.
Experiment: blockers of ER-stress CHOP reporter expression – cell-based, unfolded protein response, luciferase reporter, primary screen (AID 2732);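 note: 0% = tunicamycin plus vehicle and 100% = wells without tunicamycin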
Conditions: CHO-K1 CHOP-promoter luciferase, tunicamycin-induced, 15-18 h; at 10 µM; stronger effect = higher value
Screen size: about 220,000 compounds; about 8,200 (3.7%) were called active. The entries come from a sample that favours actives as a whole.
Answers are plain numbers, in %.

CCn1c2ccccc2c2cc(NC(=O)CNC)ccc21; 5.95

Fill in inhibition for each of the 3 compounds listed.
1. O=C(Nc1ccccc1)Nc1nc2ccccc2s1
2. Cc1ccc2nc(Nc3ncc4c(n3)CC(C)(C)CC4=O)nc(C)c2c1
3. CCNc1nc(SCCOc2ccccc2)nc(N(C)C)n1

A:
[-20.1, 7.17, 90.8]
